Entry source: BindingDB's records for patent US20240109917

system: Platelet-derived growth factor receptor beta (Homo sapiens)
Sequence (P09619 whole entry): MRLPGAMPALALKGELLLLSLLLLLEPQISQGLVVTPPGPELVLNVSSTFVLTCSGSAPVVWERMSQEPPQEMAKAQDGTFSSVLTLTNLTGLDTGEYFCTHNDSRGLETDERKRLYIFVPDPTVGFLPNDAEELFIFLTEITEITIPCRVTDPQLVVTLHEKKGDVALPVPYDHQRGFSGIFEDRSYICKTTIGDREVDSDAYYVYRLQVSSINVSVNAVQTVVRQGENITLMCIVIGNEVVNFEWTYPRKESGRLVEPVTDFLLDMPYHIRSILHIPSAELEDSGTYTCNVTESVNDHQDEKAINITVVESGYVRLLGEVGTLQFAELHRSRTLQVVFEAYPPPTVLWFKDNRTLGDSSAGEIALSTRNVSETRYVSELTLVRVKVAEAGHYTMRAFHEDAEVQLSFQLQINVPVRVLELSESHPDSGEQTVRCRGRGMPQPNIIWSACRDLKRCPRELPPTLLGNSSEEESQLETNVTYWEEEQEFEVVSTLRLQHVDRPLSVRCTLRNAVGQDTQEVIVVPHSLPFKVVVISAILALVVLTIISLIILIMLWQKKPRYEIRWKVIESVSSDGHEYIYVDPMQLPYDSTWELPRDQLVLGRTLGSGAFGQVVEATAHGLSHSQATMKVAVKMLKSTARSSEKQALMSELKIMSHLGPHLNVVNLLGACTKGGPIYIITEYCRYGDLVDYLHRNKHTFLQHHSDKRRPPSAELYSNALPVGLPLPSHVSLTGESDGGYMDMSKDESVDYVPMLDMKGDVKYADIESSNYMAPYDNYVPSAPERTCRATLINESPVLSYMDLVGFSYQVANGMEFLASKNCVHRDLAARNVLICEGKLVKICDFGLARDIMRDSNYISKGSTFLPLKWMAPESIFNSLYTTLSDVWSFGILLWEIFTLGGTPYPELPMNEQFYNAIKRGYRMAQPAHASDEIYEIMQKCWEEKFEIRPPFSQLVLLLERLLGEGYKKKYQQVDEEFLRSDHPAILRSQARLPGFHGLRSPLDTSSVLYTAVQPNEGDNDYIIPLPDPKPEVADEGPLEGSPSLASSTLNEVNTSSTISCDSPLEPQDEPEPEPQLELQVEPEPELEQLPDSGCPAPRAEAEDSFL
resultType: IC50 (nM)
Reply numerically in nM, unit not repeated.

// assay Platelet-derived growth factor receptor beta (Homo sapiens), entry CCOC1CN(CC(=O)Nc2cnc(C)c(NC(=O)c3cnn4cc(-c5cccnc5OC)sc34)c2)C1 [US20240109917, Example 401] , IC50 value = 0.3
